Assay: yeast display, Sf9 membrane polyspecificity reagent, FACS + sequencing; frameworks hold sequencing errors
measured-property: polyreactivity (PSR sort gate)

seq	polyreactivity (PSR sort gate)
QVQLQESGVCLVQAGGSPRLSCAASDNIFPDSVMCWYRQAPGKERELVATIGFGATTNYADSVKGRFTISRDNAKNTVYLQMNSLKPEDTAVYYCAADPLNYEYFCYWGQGTQVTVSS	low polyreactivity
QDQLVESGGGLVQAGGSLRLICAASGITFFGYVMGWYRQAPGKERELVAAINSRGGNTYYADSVKGRFTSSRDNAKNTVYLQMNSLKPEDTAVYYCAASNGYQAVTYDYWGQGTQVTVSS	high polyreactivity
QVQLVESGGGLVQAGGRLRLICAASGSTLYSYAMGWYRQAPGKEREFVAAISRRGGSTYYADSVKGRFTISRDNAKNTVYLQMNSLKPEDTAVYYCAARDSSYHWYGYWGQGTQVTVSS	high polyreactivity
QVQLVESGGGLVQAGGSLRLSCAASGYIFWINAMGWYRHAPGKERDLVAAIRYSTGRTYYADSVKGRFTISRDNAKNTVYLQMNSLKPEDTAVYYCNARSWYIRGSQEYYYWGQGTQVTVSS	high polyreactivity

# evaluate next
Q) Fill blank: measured polyreactivity (PSR sort gate) of the sequence "QVQLVESGGGLVQAGGSLRLSCAASGFTFIFNAMGWYREAPGKERELVAAITWGGASTDYADSVKGRFTISRDNAKNTVNLQMKSLKPEDTAVYYCAKDNWDNPRPTSEMDYWGQGTQVTVSS" is ____.
A) low polyreactivity

====

Assay: yeast display, Sf9 membrane polyspecificity reagent, FACS + sequencing; frameworks hold sequencing errors

seq	polyreactivity (PSR sort gate)
QVQLVESGGGLVQAGGSLRLSCAASGSIFKRYAMGWYRQAPGKERELVASISSRGSSTNYADSVKGRFTISRDNAKNTVYLQMNSLKPEDTAVYYCAAEVYRGKYWSTYRGGDYWGQGTQVTVSS	high polyreactivity
QVQLVESGGGLVQAGGSLRLSCAASGRTFGWYDMGWYRQAPGKERELVAAISWSGSSTYYADSVKGRFTISRDNAKNTVYLQMNSLKPEDNAVYYFNDVIRSDLFSYLDGRYDYWGQGTQVTVSS	high polyreactivity

====

Assay: yeast display, Sf9 membrane polyspecificity reagent, FACS + sequencing; frameworks hold sequencing errors
measured-property: polyreactivity (PSR sort gate)

Examples with their reported polyreactivity (PSR sort gate) follow.
seq	value-observed
QVQLVESGGGLVQAGGSLRLSCAASGSTVTSNAMGWSRQAPGKERELVAAISSGGSTYYADSVKGRFTISRDNAKNTVYLQMNSLKPEDTAVYYCAAEWHYIYAYDYWGQGTQVTVSS	low polyreactivity
QVQLVESGGGLVQAGGSLRLSCAASGRTFYIYAMGWYRQAPGKERELVAAISWSGGTTYYADSVKGRFTISRDHAKNTVYLQMNSLKPEDTAVYYCNVYPAYNYFDYDYWGQGTQVTVSS	high polyreactivity
QVQLVESGGGLVQAGGSLRLSCAASGYIFYAYAMGWYRQAPGKERELVAAISSGGGRTYYADSVKGRFTISRDNAKNTVYLQMNSLKPEDTAVYYCAARRRDRGEYYYWGQGTQVTVSS	high polyreactivity
QVKLVESGGGLVQAGGSLRLSCAASGRTFVWNAMGWYRQAPGKERELVAAISSSGTSTYYADSVKGRFTISRDNAKNTVYLQMNSQKPEDTAVYYCAKDLLYQPTIRDYWGQGTQVTVSS	low polyreactivity
QVQLVESGGGLVQAGGSLRLSCAASGITFVYYAMGWYRQAPGKERELVAAISKNGGSTYYADSVKGRFTISRDNAMNTVYLQMNSLKPEDTAVYYCAAEEGYPWVRYNYWGQGPQVTVSS	high polyreactivity

Q) Fill blank: measured polyreactivity (PSR sort gate) of the sequence "QVQLVESGGGLVQAGGSLRLSCAASGFTFYSYAMGWYRQAPGTERELVAAISGGGGSTYYADSVKGRFTISRDNAKNTVYLQMNSLKPEDTAVYYCAKRPAYRGYGLGYYWGQGTQVTVSS" is ____.
A) high polyreactivity

Q) Fill blank: measured polyreactivity (PSR sort gate) of the sequence "QVQLVESGGGLVQAGGSLRLSSAASGRIFAVYAMGLYRQAPGKERELVAAINWNDGSTYYADSVKGRFTISRDNAKNTVYLQMNSLKPEDTAVYYCAARALSRSVYGKSGYKYGYWGQGTQVTVSS" is ____.
A) high polyreactivity

Q) Fill blank: measured polyreactivity (PSR sort gate) of the sequence "QVQLVESGGGLVQEGGSLRLSCAASGSIFKPYAMGWYRQAPGKERELVAAINRGGTSTYYADSVKGRFTISRDNAKHTVYLQMNRLKPEDTAVYYCAAEGQDGRFYWGQGTQVTVSS" is ____.
A) low polyreactivity

Q) Fill blank: measured polyreactivity (PSR sort gate) of the sequence "QVQLVESGGGLVQAGGSLRLSCAASGFTFNNYAMGWYRQAPGKERELVAAISSGAGTYYADSVKGRFTISRDNAKNTVYLQMNSLKPEDTAVYYCNASLKYQGLTRITYRDDYWGQGTQVTVSS" is ____.
A) low polyreactivity

Q) Fill blank: measured polyreactivity (PSR sort gate) of the sequence "QVQLVESGGGLFQAGGSLRLSCAPSGRTFDYNAMGWYRQAPGKERELVAAISGSGTRTFYADSVKGRFTISRDNAKNTVYLQMNSLKPEDTAVYYCAASHGWSKSIFYYWGQGTQVTVSS" is ____.
A) high polyreactivity

Q) Fill blank: measured polyreactivity (PSR sort gate) of the sequence "QVQHVESGGGLVQAGGSLRLSCAASGSIFKPYAMGWYRLAPGKEREFVAAITSSDGTTYYADSVKGRFTISRDNAKNTVYVQMNSLKPEDTAVYYCNAEYYAKYVPFTKYYYWGQGTQVTVSS" is ____.
A) low polyreactivity

Q) Fill blank: measured polyreactivity (PSR sort gate) of the sequence "QVQLVESGGGLGQAGGSLRLSCAASGRIFRYNAMGWYRQAPGKDRELVAVITSRGGRTYYADSVKGRFTLSRDNAKNTVYLQMTSLKPEDSAVYYCTATYSGRGSTYWSGYDYWGQGTQVTVSS" is ____.
A) high polyreactivity

Q) Fill blank: measured polyreactivity (PSR sort gate) of the sequence "QVQLVETGGGLVQAGGSLRLSCAASGRISQNAMGWYRQAPGKERELVAAITFSGGSTYYADSVKGRFTISRDNAKNTVYIQMNSLKAEDTAVYYCNVRQYTDGMKYDYWGQGTQVTVSA" is ____.
A) low polyreactivity

====

Test: yeast display, Sf9 membrane polyspecificity reagent, FACS + sequencing; frameworks hold sequencing errors
measured-property: polyreactivity (PSR sort gate)

Examples with their reported polyreactivity (PSR sort gate) follow.
seq	polyreactivity (PSR sort gate)
QVQLVESGGGLVQAGGSLRLSCAASGFIYHTNAMGWYRPAPGKERELVAAISDSADITHYADSVKGRFTISRDYAKNTVYLQMNSLKPEDTAVYYCNTTGDPPAYDFAFEDWGQGTQVTVSS	low polyreactivity
QVQLVESGGGLVQAGGSLRLSCAASGIIFSYYDMGRYRQAPGKERELVATITGNGGSTYYADSVKGRFTISRDNAKNTVYLQMNSLKPEDTAVYYCAAQTTVYIYDYWGQGTQVTVSS	low polyreactivity
QVQLVESGGGLVQAGGSLRLSCAASGRTFSYYAMGCYRQAPGKERELVASISSGGSTKYADSVKGRFTISRDNAKNTVYLQMNSLKPEDTAVYYCAVTYWYGRVLYGYWGQGTQVTVSS	high polyreactivity
QVQLVESGGGLVQAGGSLSLSCAASGRIFYGYVMVWYRQAPGKERELVAAITWSGSRTYYADSVKGRFTISRDNAKNTVFLQMNSLKPADTAVYYCAARIPSDGYYYWGQGTQVTVSS	high polyreactivity

# evaluate next
Q) Fill blank: measured polyreactivity (PSR sort gate) of the sequence "QVQLVESGGGLVQAGGSLRLSCAASVRIFVYYAMGWYRQAPGKERELVASISYSGASTYYADSVKGRFTISRDNAKKTVYLQMNSLKPEDTAVYYCNTDGDDFFHVIYDYWGQGTQVTVSS" is ____.
A) low polyreactivity

====

Test: yeast display, Sf9 membrane polyspecificity reagent, FACS + sequencing; frameworks hold sequencing errors
measured-property: polyreactivity (PSR sort gate)

Examples with their reported polyreactivity (PSR sort gate) follow.
seq	value-observed
QVQLVESGGGLVQAGGSLRLSCAASGSIFSLYAMGWYRQAPGKERELVAAISSSGTSTYYADSVKGRFTISRDNAKNTVYLQMNSLKPEDTAVYYCNAYREFDWGQGTQVTVSS	high polyreactivity
QVQLVESGGCLVQAGGSLRLSCAASGSIFAAYTMGWYRQAPGKERELVAAISVSTVSTYYADSVKGRFTISRDNAKNTVYLQMNSLKPEDTAVYYCNADATDSYPEKDEHDSWGQGTQVTVSS	low polyreactivity
QVQLVESGGGLVQAGGSLRLSCAASGFICGYYAMGWYRQAPGKERELVADISRGGNTNYAESVKGRFTISRDNAKNSVYLQMNSLKPEDTAVYYCARYRRGKMDYWGQGTQVTVSS	high polyreactivity
QVQLVESGGGLVQAGGSLRLSCAASGRILIRKAMGWYRQAPGKERELVAAINRGGGSTYYADSVKGRITISRDNAKNTVYLQMISLNPDDTAVYYCAADRKAGYSRVDGDYWGQGTQVTVSS	low polyreactivity
QVQLVESRGGLVQAGGSLRISCAASGRIFGYNAMGWYRQAPGKERELVAAISASGGRTYYADSVKARFTISRDNAKNTVYLQMNSLKPEDTAVYYCATKYRSFYSYDYWGQGTQVTVSS	high polyreactivity
QVQLVESGGGLVQAGGSVRLSCAASGRIFQPYAMGWYRQAPGKEREWVAAITRRAGSTYYADSVKGRFTISRDNALNTVYLQLNSLKPEDTAVSYCAARGLYWAYEMEYWGQGTQVTVSS	low polyreactivity

Q) Fill blank: measured polyreactivity (PSR sort gate) of the sequence "QVQIVESGGGLVQAGGSLRLSCAASGFIFDYNAMGWYRQAPGKERELVAAISYSGGRTSYADSVKGRFTISRDNAKNTVYLQMNSLKPEDTAVYYCAKDNYVDFGGYYYPRMYYWGQGTQVTVSS" is ____.
A) high polyreactivity

Q) Fill blank: measured polyreactivity (PSR sort gate) of the sequence "QVQLVESGGGLVQAGGSLRLSCAASGLTFGRYAMGWYRQAPGKERELVAVINRGGNTYYADSVKGRFTISRDNAKNTVYLQMNSLKPEDTAVYYCAADYLRWAGRYFSWDYDYWGQGTQVTVSS" is ____.
A) high polyreactivity

Q) Fill blank: measured polyreactivity (PSR sort gate) of the sequence "QVQLVESGGGLVQAGGSLRLSCAASGRIFPANAMGWYRQAPGKERELVAAISSSGGSTYYADSVKGRFTISRDNAKNTVYLQMNSLKPEDTAVYYCAKVHYRWPRVTWPNVWWSFEYWGQGTQVTVSS" is ____.
A) low polyreactivity

Q) Fill blank: measured polyreactivity (PSR sort gate) of the sequence "QVQLLESGGGLVQAGGSLRLSCAASGFTFKRNAKGWYRQAPGKEREFVAAITSSGGSTYYADSVKGRFTISRDNAKNTVYLQMNSLKPEDTAVYYCAARSKGAYPTRPLPGGYGYWGQGTQVTVSS" is ____.
A) high polyreactivity

Q) Fill blank: measured polyreactivity (PSR sort gate) of the sequence "QVQLVESGGGLVQAGGSLRLSCAASGRTFGDKAMGWYRQAPGKERELVAAISWSGGRTYYADSVKGRFTISRDNAKNTVYLQMNSLKPEDTAVYYCAARNNRYPLYNYWGQGTQVTVSS" is ____.
A) low polyreactivity
